Method Description: Release of native API from API-linker construct in buffer (UHPLC, first-order fit)
Format: physicochemical
Condition Label: API-trityl linker construct in buffer, pH 5.0, 37 °C; read-out: t1/2 pH 5.0 (converted)
Measured Attribute: half-life at 0.1 mg/mL

query: // half-life at 0.1 mg/mL lookup, key: C=C(C)C(=O)NCCCNC(=O)c1cccc(C(N[C@H]2C[C@H](O[C@H]3C[C@](O)(C(=O)CO)Cc4c(O)c5c(c(O)c43)C(=O)c3c(OC)cccc3C5=O)O[C@@H](C)[C@H]2O)(c2ccc(OC)cc2)c2ccc(OC)cc2)c1 [compound 17]
result: < 1 h

###

Method Description: Release of native API from API-linker construct in buffer (UHPLC, first-order fit)
Type: physicochemical
Condition Label: sodium citrate buffer, pH 6.5, API-trityl linker construct in buffer, pH 6.5, 37 °C; read-out: t1/2 pH 6.5 (converted)
Consider the following compounds; for each one, report its half-life at 0.1 mg/mL.

Return reported half-life at 0.1 mg/mL values for all items listed beneath this line.
1. C=C(C)C(=O)NCCCNC(=O)c1cccc(C(Nc2ccc(CC(=O)[O-])c3oc4c(C)c(C)ccc4c(=O)c23)(c2ccc(OC)c(OC)c2)c2ccc(OC)c(OC)c2)c1.[Li+]
2. C=C(C)C(=O)NCCCNC(=O)c1cccc(C(Nc2ccc(CC(=O)[O-])c3oc4c(C)c(C)ccc4c(=O)c23)(c2ccc(OC)cc2)c2ccc(OC)cc2)c1.[Li+]
3. C=C(C)C(=O)NCCCNC(=O)c1ccc(C(Nc2ccc(CC(=O)[O-])c3oc4c(C)c(C)ccc4c(=O)c23)(c2ccc(OC)c(C)c2)c2ccc(OC)c(C)c2)cc1.[Li+]
4. C=C(C)C(=O)NCCCNC(=O)c1ccc(C(Nc2ccc(CC(=O)[O-])c3oc4c(C)c(C)ccc4c(=O)c23)(c2ccc(OC)c(OC)c2)c2ccc(OC)c(OC)c2)cc1.[Li+]
5. C=C(C)C(=O)NCCCNC(=O)c1ccc(C(Nc2ccc(CC(=O)[O-])c3oc4c(C)c(C)ccc4c(=O)c23)(c2ccc(OC)cc2OC)c2ccc(OC)cc2OC)cc1.[Li+]

result:
< 1 h
83 h
1.9 h
1.2 h
< 1 h

###

Method Description: Release of native API from API-linker construct in buffer (UHPLC, first-order fit)
Type: physicochemical
Condition Label: sodium phosphate buffer, pH 3, API-trityl linker construct in buffer, pH 3.0, 37 °C; read-out: t1/2 pH 3.0 (converted)
Measured Attribute: half-life at 0.1 mg/mL (h)
Numbers only, in h.

query: Would you mind telling me what half-life at 0.1 mg/mL value was observed for C=C(C)C(=O)NCCCNC(=O)c1cccc(C(Nc2ccn([C@@H]3O[C@H](CO)[C@@H](O)C3(F)F)c(=O)n2)(c2ccc(OC)cc2)c2ccc(OC)cc2)c1 ?
result: 23.3

###

Method Description: Release of native API from API-linker construct in buffer (UHPLC, first-order fit)
Type: physicochemical
Condition Label: sodium phosphate buffer, pH 7.4, API-trityl linker construct in buffer, pH 7.4, 37 °C; values for 17 are estimations (doxorubicin precipitation); read-out: t1/2 pH 7.4 (converted)
Measured Attribute: half-life at 0.1 mg/mL (h)
Numbers only, in h.

C=C(C)C(=O)NCCCNC(=O)c1cccc(C(Nc2ccc(CC(=O)[O-])c3oc4c(C)c(C)ccc4c(=O)c23)(c2ccc(OC)c(OC)c2)c2ccc(OC)c(OC)c2)c1.[Li+] ... 2.3

Would you kindly look at the next entry?
query: Which half-life at 0.1 mg/mL value is on record for C=C(C)C(=O)NCCCNC(=O)c1ccc(C(Nc2ccc(CC(=O)[O-])c3oc4c(C)c(C)ccc4c(=O)c23)(c2ccc(OC)c(OC)c2)c2ccc(OC)c(OC)c2)cc1.[Li+] ?
result: 4.2

Data provenance is paper PMC9501768.
